Reference source for all entries: PubChem BioAssay AID2051

molecular target: Ras-related C3 botulinum toxin substrate 1 (Homo sapiens) (UniProt P63000); experiment: activated mutant Rac1 GTP binding inhibitors, SAR follow-up, biochemical, oxadiazole analogs, multiplex bead flow cytometry (AID 2051); conditions: Bead-based flow cytometry, Bodipy-FL-GTP binding to GST-Rac1
The source made the active and inactive calls.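 The calls were made as follows: active = EC50 of 30 microM or lower and a span of response of at least a set limit; inactive = the rest.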
Parameter call: string, one of TRUE = active, FALSE = inactive

Before answering, review these 3 worked examples.
structure_smiles_string=Cc1ccc(C)c(N2CCN(C(=O)CCc3nc(-c4ccc(F)cc4)no3)CC2)c1 group=TRUE
structure_smiles_string=COc1ccc(-c2noc(CCC(=O)N3CCC(c4cc(C)ccc4C)CC3)n2)cc1 group=FALSE
structure_smiles_string=Cc1ccc(C)c(N2CCN(C(=O)CCc3nc(-c4ccccc4F)no3)CC2)c1 group=TRUE

Task: Tell me the assay call for `COc1ccc(-c2noc(CCC(=O)N3CCN(c4cccc(Cl)c4)CC3)n2)cc1` please.
Output: TRUE

Task: Assay outcome for `COc1ccc(-c2ccc(CCC(=O)N3CCN(c4cc(C)ccc4C)CC3)o2)cc1` : what was it?
Output: FALSE

Task: What did the test return for `COc1ccc(-c2noc(CCC(=O)N3CCN(c4ccccc4C(F)(F)F)CC3)n2)cc1` ?
Output: TRUE

Task: Record request — test call for `COc1ccc(-c2noc(CCC(=O)N3CCN(c4cc(C)ccc4C)CC3)n2)cc1`
Output: TRUE
